Tested System: Neuropilin-1 (Homo sapiens) (UniProt O14786)
Sequence (O14786 whole entry, looked up): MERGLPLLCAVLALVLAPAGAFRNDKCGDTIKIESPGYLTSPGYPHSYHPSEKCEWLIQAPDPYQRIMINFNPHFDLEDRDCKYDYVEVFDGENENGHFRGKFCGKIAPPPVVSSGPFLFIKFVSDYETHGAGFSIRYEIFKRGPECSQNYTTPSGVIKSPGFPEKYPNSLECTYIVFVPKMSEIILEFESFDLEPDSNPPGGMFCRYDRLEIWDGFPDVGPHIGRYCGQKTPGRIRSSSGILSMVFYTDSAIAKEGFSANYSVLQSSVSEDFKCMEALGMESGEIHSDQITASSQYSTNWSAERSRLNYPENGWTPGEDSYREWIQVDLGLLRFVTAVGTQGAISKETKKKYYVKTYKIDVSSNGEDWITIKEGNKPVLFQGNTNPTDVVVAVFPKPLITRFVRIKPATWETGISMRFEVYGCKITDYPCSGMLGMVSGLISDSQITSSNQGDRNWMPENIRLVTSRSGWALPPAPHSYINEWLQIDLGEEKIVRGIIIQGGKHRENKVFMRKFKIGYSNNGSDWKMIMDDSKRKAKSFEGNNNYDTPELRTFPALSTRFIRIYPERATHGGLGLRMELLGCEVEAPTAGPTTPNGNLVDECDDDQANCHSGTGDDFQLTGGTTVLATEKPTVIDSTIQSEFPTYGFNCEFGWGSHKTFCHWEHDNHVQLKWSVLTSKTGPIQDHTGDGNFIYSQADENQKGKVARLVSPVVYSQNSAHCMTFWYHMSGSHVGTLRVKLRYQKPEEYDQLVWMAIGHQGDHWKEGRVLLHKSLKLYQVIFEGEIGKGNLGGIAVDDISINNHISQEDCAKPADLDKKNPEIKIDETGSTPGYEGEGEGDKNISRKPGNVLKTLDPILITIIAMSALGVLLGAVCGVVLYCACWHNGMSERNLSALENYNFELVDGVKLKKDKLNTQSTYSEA
Measurement Notes: NRP-1/CendR peptide interaction modulators – biochemical, fluorescence polarization, uHTS, primary screen (AID 602438)
Condition Label: FAM-RPARPAR peptide binding to NRP-1, fluorescence polarization; at 25 µM; stronger effect = higher value
The campaign covered roughly 360,000 compounds. About 3,100 (0.86%) were called active. This excerpt belongs to a sample that is enriched for actives.
Readout: inhibition (%)
Numeric answer only, unit % assumed.

// below: answered compounds
INSERT INTO results (compound, reading) VALUES
  ('COc1cccc(/C=N/NC(=O)C(=O)N2CCCC2)c1', -7.9),
  ('CCOc1ccc(-n2c(SC(C)C(=O)OC)nc3c(c2=O)SCC3)cc1 (stereo not given)', -5.4),
  ('COc1ccc(Cl)cc1S(=O)(=O)N1CCC(O)(c2ccc(Cl)cc2)CC1', 3),
  ('CCOc1ccc(NC(=O)CC(Cc2ccc(Cl)cc2)C(=O)O)cc1 (stereo not given)', 1.1);

Now turn to the next compound.
Lookup: Bench note: what inhibition did O=C(c1ccc(N2CCCC2=O)cc1)N1CCN(c2ccc(C(F)(F)F)cc2[N+](=O)[O-])CC1 show?
Found: -0.8
